Entries and their measured median fluorescence follow.
measured_target: T1, FZD5 cysteine-rich domain (CRD), MYC-tagged and GPI-anchored on CHO cells (human, UniProt Q13467 29-156, GPI anchor)
T1 construct: also called FZD5 CRD; CHO-myc-FZDGPI; not shown: MYC tag and GPI anchor signal
T1 sequence: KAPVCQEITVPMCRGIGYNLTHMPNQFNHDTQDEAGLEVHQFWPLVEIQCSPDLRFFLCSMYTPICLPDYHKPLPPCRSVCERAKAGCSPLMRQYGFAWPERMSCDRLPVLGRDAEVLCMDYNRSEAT
procedure_summary: flow cytometry, CHO-CRD cells;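 also: flow cytometry of Fab binding to CHO cells overexpressing a Frizzled CRD, with binding defined as median fluorescence over twice that of CHO cells lacking any Frizzled CRD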
Simply state the number, no unit and no words.

Consider the following illustrative entries.
// returns reported median fluorescence for input Fab-2904 (Fab, V domains shown, Fab; also called Fv-2904) VH: EVQLVESGGGLVQPGGSLRLSCAASGFNIYSYSMHWVRQAPGKGLEWVAYISSSYGYTSYADSVKGRFTISADTSKNTAYLQMNSLRAEDTAVYYCARSWYAWAMDYWGQGTLVTVSS VL: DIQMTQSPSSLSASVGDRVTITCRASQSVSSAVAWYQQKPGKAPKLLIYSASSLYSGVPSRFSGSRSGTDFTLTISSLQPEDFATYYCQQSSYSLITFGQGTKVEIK
29.7

Please report the recorded median fluorescence for Fab-2902 (Fab, V domains shown, Fab; also called Fv-2902) VH: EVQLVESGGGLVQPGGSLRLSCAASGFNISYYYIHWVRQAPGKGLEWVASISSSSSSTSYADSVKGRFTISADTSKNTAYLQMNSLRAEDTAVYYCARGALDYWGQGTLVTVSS VL: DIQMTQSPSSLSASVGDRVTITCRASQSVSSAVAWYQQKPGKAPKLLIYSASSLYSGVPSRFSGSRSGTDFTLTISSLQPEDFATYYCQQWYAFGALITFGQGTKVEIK .
36.9

If you can, please state the reported median fluorescence value of Fab-2930 (Fab, V domains shown, Fab; also called Fv-2930) VH: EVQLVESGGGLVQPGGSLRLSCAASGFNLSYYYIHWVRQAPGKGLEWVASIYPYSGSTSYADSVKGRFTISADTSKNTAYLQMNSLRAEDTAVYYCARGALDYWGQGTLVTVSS VL: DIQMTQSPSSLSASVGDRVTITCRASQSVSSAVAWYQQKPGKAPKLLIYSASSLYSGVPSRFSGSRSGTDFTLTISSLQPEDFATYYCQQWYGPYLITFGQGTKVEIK .
33.1

Which median fluorescence value belongs to Fab-2920 (Fab, V domains shown, Fab) VH: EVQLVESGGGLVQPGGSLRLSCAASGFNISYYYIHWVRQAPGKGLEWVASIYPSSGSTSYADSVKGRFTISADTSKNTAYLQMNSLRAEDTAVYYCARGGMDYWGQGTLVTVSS VL: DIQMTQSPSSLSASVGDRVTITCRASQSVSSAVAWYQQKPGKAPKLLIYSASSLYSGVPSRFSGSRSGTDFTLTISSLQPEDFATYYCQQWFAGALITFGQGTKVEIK ?
28.6

Consider the binder shown here: Fab-2923 (Fab, V domains shown, Fab; also called Fv-2923) VH: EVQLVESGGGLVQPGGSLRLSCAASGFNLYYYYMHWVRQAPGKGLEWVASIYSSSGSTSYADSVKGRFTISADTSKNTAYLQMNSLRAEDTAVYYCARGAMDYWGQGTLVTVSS VL: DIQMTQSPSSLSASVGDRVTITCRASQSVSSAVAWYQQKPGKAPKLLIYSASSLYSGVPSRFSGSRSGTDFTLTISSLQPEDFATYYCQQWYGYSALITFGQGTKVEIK What is its recorded median fluorescence?
36.9

I would be grateful if you could share the reported median fluorescence for Fab-2916 (Fab, V domains shown, Fab) VH: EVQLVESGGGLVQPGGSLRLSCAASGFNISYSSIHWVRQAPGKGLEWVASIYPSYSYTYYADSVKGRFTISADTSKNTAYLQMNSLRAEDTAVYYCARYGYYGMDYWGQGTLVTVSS VL: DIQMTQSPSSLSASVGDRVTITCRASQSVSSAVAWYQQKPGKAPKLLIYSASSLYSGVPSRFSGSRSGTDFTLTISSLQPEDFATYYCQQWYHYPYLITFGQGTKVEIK .
24.1

---
Please report the recorded median fluorescence for Fab-2919 (Fab, V domains shown, Fab) VH: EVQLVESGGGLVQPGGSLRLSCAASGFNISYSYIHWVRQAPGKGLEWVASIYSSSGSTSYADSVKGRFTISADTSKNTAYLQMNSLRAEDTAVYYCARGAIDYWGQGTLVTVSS VL: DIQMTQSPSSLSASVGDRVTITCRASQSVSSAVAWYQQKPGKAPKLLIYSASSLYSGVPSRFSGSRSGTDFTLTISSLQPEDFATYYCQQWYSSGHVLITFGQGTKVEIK .
43.7

Give the measured median fluorescence of Fab-2932 (Fab, V domains shown, Fab; also called Fv-2932) VH: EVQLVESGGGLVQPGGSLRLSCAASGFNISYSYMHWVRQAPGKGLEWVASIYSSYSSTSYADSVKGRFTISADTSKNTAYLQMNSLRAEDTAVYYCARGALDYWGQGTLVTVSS VL: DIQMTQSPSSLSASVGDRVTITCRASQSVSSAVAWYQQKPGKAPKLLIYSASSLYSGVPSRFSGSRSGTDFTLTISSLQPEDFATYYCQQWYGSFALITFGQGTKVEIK .
29.4

Need median fluorescence of Fab-2901 (Fab, V domains shown, Fab; also called Fv-2901) VH: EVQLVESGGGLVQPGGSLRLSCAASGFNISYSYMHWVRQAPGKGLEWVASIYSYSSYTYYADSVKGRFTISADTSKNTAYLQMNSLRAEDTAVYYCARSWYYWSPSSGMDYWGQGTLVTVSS VL: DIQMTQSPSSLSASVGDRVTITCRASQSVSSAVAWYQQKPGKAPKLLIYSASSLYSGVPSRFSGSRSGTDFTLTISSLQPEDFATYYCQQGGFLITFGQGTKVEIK , thanks.
32.8

What value of median fluorescence has been recorded for this entry: Fab-2921 (Fab, V domains shown, Fab) VH: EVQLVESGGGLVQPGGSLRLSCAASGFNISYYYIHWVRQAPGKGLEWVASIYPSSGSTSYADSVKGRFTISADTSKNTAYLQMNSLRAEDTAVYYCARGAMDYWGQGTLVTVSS VL: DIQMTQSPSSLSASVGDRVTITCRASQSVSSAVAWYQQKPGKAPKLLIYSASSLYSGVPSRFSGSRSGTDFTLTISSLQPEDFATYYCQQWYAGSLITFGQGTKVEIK
29.4
